Documented Threshold of tumor cell numbers for HPV-16 detection across a set of molecules
System: HPV-16
Experiment: qPCR sensitivity against HPV-HNSCC tumor samples diluted among 10 ng normal human DNA
Settings: Sample # 26
Quantity name: Threshold of tumor cell numbers for HPV-16 detection (tumor cells)

molecule="BR E1-5: HPV-16 E1 region primer/probe set, SEQ ID NO: 40-42 (same as SEQ ID NO: 1-3) (nucleic acid, chemistry not given here) DNA 1: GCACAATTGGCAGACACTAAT DNA 2: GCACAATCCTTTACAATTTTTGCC DNA 3: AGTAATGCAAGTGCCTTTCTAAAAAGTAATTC" endpoint_unit="tumor cells" measured=0.6
molecule="E7: previously designed (historical) HPV-16 E7 primers and Taqman probe, SEQ ID NO: 10-12; part of CLIA test (nucleic acid, Taqman probe, labels not given here, part of CLIA test) DNA 1: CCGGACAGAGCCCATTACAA DNA 2: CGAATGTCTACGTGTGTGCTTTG DNA 3: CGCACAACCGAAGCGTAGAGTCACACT" endpoint_unit="tumor cells" measured=0.3

Taken from patent US20200399712A1.
